This section presents compounds with their documented pKi values.
target: Neuronal acetylcholine receptor; alpha3/beta4 (Rattus norvegicus, UniProt P04757+P12392); assay: Agonist activity at rat alpha-3-beta-4 nAChR expressed in HEK293 cells by FMP assay; type: functional, cell-based; settings: read-out: Ki
Sequence (P04757 whole entry): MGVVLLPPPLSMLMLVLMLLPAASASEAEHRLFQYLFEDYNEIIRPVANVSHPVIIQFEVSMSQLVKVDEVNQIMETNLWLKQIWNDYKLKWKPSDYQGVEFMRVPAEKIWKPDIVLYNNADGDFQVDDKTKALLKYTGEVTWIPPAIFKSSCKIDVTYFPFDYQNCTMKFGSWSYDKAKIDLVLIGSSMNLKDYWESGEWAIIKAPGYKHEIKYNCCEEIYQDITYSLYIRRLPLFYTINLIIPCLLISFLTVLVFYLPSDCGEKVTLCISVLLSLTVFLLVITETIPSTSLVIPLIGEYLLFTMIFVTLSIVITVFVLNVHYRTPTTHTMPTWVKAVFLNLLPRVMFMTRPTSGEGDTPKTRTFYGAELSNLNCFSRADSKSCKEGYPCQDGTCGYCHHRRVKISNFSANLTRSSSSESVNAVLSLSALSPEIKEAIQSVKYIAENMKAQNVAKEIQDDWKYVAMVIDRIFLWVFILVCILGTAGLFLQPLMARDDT
Sequence (P12392 whole entry): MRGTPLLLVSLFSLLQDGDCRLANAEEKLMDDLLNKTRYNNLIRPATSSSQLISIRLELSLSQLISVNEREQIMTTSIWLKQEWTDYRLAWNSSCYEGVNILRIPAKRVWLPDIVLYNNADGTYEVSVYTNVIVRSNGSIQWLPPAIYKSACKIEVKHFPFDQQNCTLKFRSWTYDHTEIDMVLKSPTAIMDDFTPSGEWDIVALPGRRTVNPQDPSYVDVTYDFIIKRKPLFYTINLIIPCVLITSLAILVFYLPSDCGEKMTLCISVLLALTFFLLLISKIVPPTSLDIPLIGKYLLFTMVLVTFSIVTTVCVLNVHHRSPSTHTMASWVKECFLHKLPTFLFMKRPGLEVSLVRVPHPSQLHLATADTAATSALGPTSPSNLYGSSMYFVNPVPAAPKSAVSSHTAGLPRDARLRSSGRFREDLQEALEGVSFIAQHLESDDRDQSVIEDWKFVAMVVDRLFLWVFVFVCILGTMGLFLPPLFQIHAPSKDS
pKi: −log10 of the molar value.

- COMPOUND: "CC(CCOC(=O)n1cccc1)N(C)C (configuration not stated)"
  ASSAY SYSTEM: "Neuronal acetylcholine receptor; alpha3/beta4 (Rattus norvegicus, UniProt P04757+P12392)"
  pKi: 7.00
- COMPOUND: "CC(CCOC(=O)N1CCC1)N(C)C (configuration not stated)"
  ASSAY SYSTEM: "Neuronal acetylcholine receptor; alpha3/beta4 (Rattus norvegicus, UniProt P04757+P12392)"
  pKi: 7.64
- COMPOUND: "CC1CN(C(=O)OCCC(C)N(C)C)C1 (configuration not stated)"
  ASSAY SYSTEM: "Neuronal acetylcholine receptor; alpha3/beta4 (Rattus norvegicus, UniProt P04757+P12392)"
  pKi: 7.32
- COMPOUND: "CC(CCOC(=O)N(C)C)N(C)C (configuration not stated)"
  ASSAY SYSTEM: "Neuronal acetylcholine receptor; alpha3/beta4 (Rattus norvegicus, UniProt P04757+P12392)"
  pKi: 8.11
- COMPOUND: "CC(CCOC(=O)N1CCC1(C)C)N(C)C (configuration not stated)"
  ASSAY SYSTEM: "Neuronal acetylcholine receptor; alpha3/beta4 (Rattus norvegicus, UniProt P04757+P12392)"
  pKi: 7.29
- COMPOUND: "CC(CCOC(=O)N1CC(C)(C)C1)N(C)C (configuration not stated)"
  ASSAY SYSTEM: "Neuronal acetylcholine receptor; alpha3/beta4 (Rattus norvegicus, UniProt P04757+P12392)"
  pKi: 6.52
- COMPOUND: "CC(CCOC(=O)N1CCC1C)N(C)C (configuration not stated)"
  ASSAY SYSTEM: "Neuronal acetylcholine receptor; alpha3/beta4 (Rattus norvegicus, UniProt P04757+P12392)"
  pKi: 8.27

The origin of these recorded values is ChEMBL document CHEMBL1140206.
